Hey, just so you know, these numbers are from patent US20240228488A1.

MEASURED_TARGET: human activated kallikrein enzyme (Homo sapiens)
Sequence (P03952 391-638 limits assumed): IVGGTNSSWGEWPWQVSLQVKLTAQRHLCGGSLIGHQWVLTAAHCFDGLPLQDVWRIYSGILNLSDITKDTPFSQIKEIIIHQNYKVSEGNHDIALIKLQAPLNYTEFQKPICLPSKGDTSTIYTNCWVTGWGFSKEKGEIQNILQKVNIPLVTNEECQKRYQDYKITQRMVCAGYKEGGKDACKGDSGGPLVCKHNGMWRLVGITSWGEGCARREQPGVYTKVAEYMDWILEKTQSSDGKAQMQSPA
Sequence (P03952 20-390 partner limits assumed): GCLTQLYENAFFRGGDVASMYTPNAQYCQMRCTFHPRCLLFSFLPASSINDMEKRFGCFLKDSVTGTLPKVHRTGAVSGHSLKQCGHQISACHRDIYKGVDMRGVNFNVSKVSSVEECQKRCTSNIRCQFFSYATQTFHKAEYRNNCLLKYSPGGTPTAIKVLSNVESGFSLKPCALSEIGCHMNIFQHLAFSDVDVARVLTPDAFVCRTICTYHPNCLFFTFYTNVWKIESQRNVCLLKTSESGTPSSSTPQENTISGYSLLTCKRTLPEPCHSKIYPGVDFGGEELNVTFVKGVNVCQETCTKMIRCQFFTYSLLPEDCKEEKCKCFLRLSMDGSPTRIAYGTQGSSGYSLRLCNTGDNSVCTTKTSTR
ASSAY_METHOD_TEXT: Plasma kallikrein inhibition, fluorogenic PFR-AMC substrate, 500 pM activated kallikrein format
Type: biochemical
CONDITION_DESCRIPTION: Primary Dose Response Assay: Average EC50, 500 pM activated kallikrein, 300 uM PFR-AMC, 30 min preincubation, 10 min reaction
pEC50: −log10 of the molar value.
RECORDED_ENDPOINT: pEC50

Incoming: Record request: pEC50 value, item "Cc1ccnc([C@H]2C[C@@H]2C(=O)Nc2cc(N[C@H](C)c3cn4cc(CF)cc(N5CC(=O)N(C)C5=O)c4n3)ncn2)n1"
Outgoing: > 9.00

###

MEASURED_TARGET: plasma kallikrein (Homo sapiens, UniProt P03952)
Construct: from tissue
Sequence (P03952 391-638 limits assumed): as the sequence (P03952 391-638 limits assumed) above
Sequence (P03952 20-390 partner limits assumed): as the sequence (P03952 20-390 partner limits assumed) above
ASSAY_METHOD_TEXT: Neat human plasma assay, FXIIa contact pathway-activated, PFR-AMC substrate
Format: biochemical
CONDITION_DESCRIPTION: citrated human plasma 78% final, 10 nM human FXIIa, 100 μM PFR-AMC; read-out: Human Plasma Assay: IC90
I'd appreciate it if you could supply IC90 values for the items below.

compound="Cc1ccnc([C@H]2C[C@@H]2C(=O)Nc2cc(NC(C)c3cn4cc(C5CC5)cc(S(C)(=O)=O)c4n3)nc(C)n2)n1 (stereo partly shown) [Example 363]" measured_result="1500 to 10000 nM"
compound="CC(C)(O)c1cc(C2CC2)cn2cc(CNc3cc(NC(=O)[C@H]4C[C@@H]4c4cc(Cl)ccc4C#N)ncn3)nc12 (racemic) [Example 337]" measured_result="10000 to 48000 nM"
compound="Cc1ccnc([C@H]2C[C@@H]2C(=O)Nc2cc(NCc3cn4cc(C5(F)CC5)cc(N5CC(=O)N(C)C5=O)c4n3)ncn2)n1 [Example 374]" measured_result="< 400 nM"
compound="O=C(Nc1cc(NCc2cn3cc(C4CC4)cc(N4CCN(CC5CC5)CC4)c3n2)ccn1)[C@H]1C[C@@H]1c1cccc(Cl)c1 [Example 601]" measured_result="400 to 1500 nM"
compound="Cc1ccnc([C@H]2C[C@@H]2C(=O)Nc2cc(OCc3cn4cc(C5CC5)cc(N5CC(=O)N(CC(C)(C)O)C5=O)c4n3)nc(C)n2)n1 [Example 562]" measured_result="400 to 1500 nM"
compound="CCN1CCN(c2cc(C3CC3)cn3cc(CNc4ccnc(NC(=O)[C@H]5C[C@@H]5c5cccc(Cl)c5)c4)nc23)CC1 [Example I-234]" measured_result="< 400 nM"
compound="CC(O)c1cc(C2CC2)cn2cc(CNc3cc(NC(=O)[C@H]4C[C@@H]4c4cccc(Cl)c4)ncn3)nc12 (stereo partly shown) [Example 281]" measured_result="10000 to 48000 nM"
compound="O=C(Nc1cc(NCc2cn3cc(C4CC4)cc(C4(O)CNC4)c3n2)ccn1)[C@H]1C[C@@H]1c1cccc(Cl)c1 [Example 134]" measured_result="< 400 nM"
compound="CN1CCN(c2cc(C3CC3)cn3cc(COc4ccnc(NC(=O)[C@H]5C[C@@H]5c5cccc(Cl)c5)c4)nc23)CC1 [Example 565]" measured_result="1500 to 10000 nM"
compound="O=C(Nc1cc(NCc2cn3cc(C4CC4)cc(N4CCN5CC(O)CC5C4)c3n2)ncn1)[C@H]1C[C@@H]1c1cccc(Cl)c1 (stereo partly shown) [Example I-196]" measured_result="1500 to 10000 nM"

Provide IC90 values for the following items, in order.
1. CN(C)C1CCN(c2cc(C3CC3)cn3cc(CNc4ccnc(NC(=O)[C@H]5C[C@@H]5c5cccc(Cl)c5)c4)nc23)C1 (stereo partly shown) [Example I-25]
2. O=C(Nc1cc(NCc2cn3cc(C4CC4)cc(N4CCN5CCC4C5)c3n2)ccn1)[C@H]1C[C@@H]1c1cccc(Cl)c1 (stereo partly shown) [Example I-23]
3. CCOC(=O)CCc1cc(C2CC2)cn2cc(CNc3ccnc(NC(=O)[C@H]4C[C@@H]4c4cccc(Cl)c4)c3)nc12 [Example I-240]

Outgoing:
["400 to 1500 nM", "400 to 1500 nM", "1500 to 10000 nM"]
